Just for reference, patent US11286258B2 is where these values come from.

system: MRSA-2 (clinical isolate); assay: MIC broth microdilution, MRSA-2; format: cell-based, Staphylococcus aureus; settings: Staphylococcus aureus, MRSA; overnight incubation, Mueller-Hinton broth; read-out: MIC MRSA-2 (clinical isolate)
Assay Endpoint: MIC (µg/mL)
Respond numerically; units are µg/mL and should not be typed.

[ask] Report MIC for COC(=O)[C@H]1Cc2c3n(c4ccccc24)[C@@]2(C=C/C(=N\Nc4ccc(C(F)(F)F)cc4)CC2)CC[C@@H]3N1 tested on MRSA-2 (clinical isolate).
[reply] 3.12

[ask] Report MIC for NCC[C@H](O)C(=O)N[C@@H]1C[C@H](N)[C@@H](O[C@H]2O[C@H](CN)[C@@H](O)[C@H](O)[C@H]2O)[C@H](O)[C@H]1O[C@H]1O[C@H](CO)[C@@H](O)[C@H](N)[C@H]1O [Amikacin, reference compound] tested on MRSA-2 (clinical isolate).
[reply] 8

[ask] Report MIC for FC(F)(F)Oc1ccc(N/N=C2\C=C[C@@]3(CC2)CC[C@@H]2NCCc4c2n3c2ccccc42)cc1 tested on MRSA-2 (clinical isolate).
[reply] 6.25

[ask] Report MIC for COc1ccc2c3c4n(c2c1)[C@@]1(C=C/C(=N\Nc2ccc(C(F)(F)F)cc2)CC1)CC[C@@H]4NCC3 tested on MRSA-2 (clinical isolate).
[reply] 3.12
